Experiment: inhibitors of E-selectin induction by TNFa, primary screen, imaging, HUVEC, immunofluorescence, MLSMR starter and 10KST1 sets (AID 487);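 note: 100% = median nuclei count of all wells on the same plate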
Details: HUVEC TNFalpha-induced E-selectin immunofluorescence imaging, at 2 µM; measured here: cell number, toxicity
OBSERVABLE: nuclei count (%)
Form entry: value (%) — number only.

Here is how some compounds turned out for nuclei count.
* N#Cc1ccc(-c2ccc(OCC(O)Cn3nnc4ccccc43)cc2)cc1 (centres undefined) | 116
* Cn1cc(Cl)nc1C(O)c1ccccc1 (centres undefined) | 174
* CCN(CC)CCN1C(=O)c2ccccc2NC1c1cc(OC)c(OC)c(OC)c1 (centres undefined) | 132

If you can, please state the reported nuclei count value of c1ccc(-n2c(Sc3cnccn3)nnc2-c2cccs2)cc1 .
149

Any idea what nuclei count was measured for CCOC(=O)C1=C(N)N2C(=O)CSC2=C(C(=O)OC)C1 ?
138
